# test.system: Vitamin D3 receptor (Homo sapiens) (UniProt P11473)
# Sequence (P11473 whole entry, looked up): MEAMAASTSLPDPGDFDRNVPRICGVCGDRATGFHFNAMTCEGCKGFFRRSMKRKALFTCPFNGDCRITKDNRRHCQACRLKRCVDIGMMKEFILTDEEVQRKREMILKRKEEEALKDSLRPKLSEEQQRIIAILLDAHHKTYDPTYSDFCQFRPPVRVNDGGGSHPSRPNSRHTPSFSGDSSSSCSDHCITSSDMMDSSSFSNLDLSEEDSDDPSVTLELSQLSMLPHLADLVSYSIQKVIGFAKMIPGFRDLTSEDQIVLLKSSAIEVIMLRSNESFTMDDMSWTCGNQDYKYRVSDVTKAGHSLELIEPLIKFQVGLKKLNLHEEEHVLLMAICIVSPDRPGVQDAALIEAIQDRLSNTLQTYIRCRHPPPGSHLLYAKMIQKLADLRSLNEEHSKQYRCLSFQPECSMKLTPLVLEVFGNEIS
# experiment.summary: qHTS assay to identify small molecule antagonists of the vitamin D receptor (VDR) signaling pathway (AID 743223)
# cond: VDR-UAS-bla HEK293T, beta-lactamase FRET ratio, 16 h; series mostly up to 61 µM
Results filed as inconclusive are left out. Calls of active or inactive are those of the source. Calls come from the whole dose curve; as a rule, active = well fitted inhibition curve with a large enough effect in the signal ratio in the repeat runs (not every such curve was filed as active); inconclusive = weak or mixed curves, or effect the other way; inactive = no such curve, though single readings can be large or run the other way; the % refers to the signal ratio.
Response enum: 1 = active, -1 = inactive

O=C1c2ccccc2Cc2ccccc21	-1

Challenge: Call for entry CCCCCCCCCCCC(=O)NCCCN(C)C :
Response given: 1

Challenge: Call for entry ON=C1CCCC1 :
Response given: -1

Challenge: Call for entry CCCCCCCCCCCCCC[P+](CCCC)(CCCC)CCCC (tested in a mixture with another compound) :
Response given: -1

Challenge: Call for entry O=C(NO)C1(NS(=O)(=O)c2ccc(Oc3ccc(F)cc3)cc2)CCOCC1 :
Response given: -1

Challenge: Call for entry Cn1cc(C(=O)[C@@H]2CCc3nc[nH]c3C2)c2ccccc21 :
Response given: -1

----------
# experiment.summary: qHTS assay for identifying genotoxic compounds that show differential cytotoxicity against isogenic chicken DT40 cell lines with known DNA damage response pathways - wild type cell line (AID 743012); note: nearly all actives have a fitted effect of over 60% in size
# cond: DT40 wild type chicken cells viability, CellTiter-Glo, 40 h; series mostly up to 68.4 µM
# Description: U.S. Tox21 Program National Center for Advancing Translational Sciences [NCATS] NIH Chemical Genomics Center [NCGC] U.S. Environmental Protection Agency [EPA] National Institutes of Environmental Health Sciences [NIEHS] National Toxicology Program [NTP] U.S. Food and Drug Administration [FDA] Tox21 Assay Overview: DNA repair pathways play a critical role in cellular homeostasis by repairing DNA damage induced by endogenous processes and xenobiotics. […]
Results filed as inconclusive are left out. The source made the active and inactive calls. Calls come from the whole dose curve; as a rule, active = well fitted cell-killing curve with a large enough effect in the repeat runs; inconclusive = weak or mixed curves, or effect the other way; inactive = no such curve, though single readings can be large or run the other way.
Response enum: active, inactive

Recorded results for 6 molecules are shown here.
O=c1cc(-c2ccc(O)cc2)oc2cc(O)cc(O)c12	active
CC[C@H]1O[C@]2(CC[C@@H]1C)C[C@@H]1C[C@@H](C/C=C(\C)C[C@@H](C)/C=C/C=C3\CO[C@@H]4[C@H](O)C(C)=C[C@@H](C(=O)O1)[C@]34O)O2	active
CCCCN1CCCC[C@H]1C(=O)Nc1c(C)cccc1C	inactive
Cc1onc(-c2ccccc2Cl)c1C(=O)N[C@@H]1C(=O)N2[C@@H]1SC(C)(C)[C@@H]2C(=O)O	inactive
CC(C)=CCOc1ccc(/C=C/C(=O)c2ccc(OCC=C(C)C)cc2OCC(=O)O)cc1	inactive
Cc1cc2c(cc1C(F)(F)F)N(C(=O)Nc1ccc(Oc3cccnc3C)nc1)CC2	active

Challenge: Call for entry C[C@]12CCC(=O)C=C1CC[C@@H]1[C@@H]2[C@@H](O)C[C@@]2(C)[C@H]1CC[C@]2(O)C(=O)COC(=O)CCC(=O)O :
Response given: active

Challenge: Call for entry N#CSc1ccc(N)c([N+](=O)[O-])c1 :
Response given: active

Challenge: Call for entry COc1cc(-c2nc(NC(=O)c3cc4cc(C)cc(C)c4n3CC(=O)O)sc2CCC2CCCCC2)c(OC)cc1Cl :
Response given: active

----------
Please provide measured activity change, positive = activation for the entries that follow.
# experiment.summary: qHTS assay to identify small molecule agonists of the estrogen related receptor (ERR) signaling pathway from Tox21 library (AID 1224849); note: % is set by controls: 0 for no effect and ±100 for the full control effect; nearly all actives have a fitted effect of over 15% in size
# cond: ERR reporter cell line, ONE-Glo luciferase, 18 h; at 92.4 µM (top of the series)
Calls of active or inactive are those of the source. Calls come from the whole dose curve.

Examples with their reported activity change, positive = activation follow.
Nc1c2ccccc2nc2ccccc12	-63.6% (inactive)
COC(=O)C1=C(C)NC(C)=C(C(=O)OCC(C)C)C1c1ccccc1[N+](=O)[O-] (stereo not given)	-62.2% (inactive)
Clc1ccccc1C(c1ccccc1)(c1ccccc1)n1ccnc1	-72.6% (inactive)
CC(C)(C)CC(C)(C)c1ccc(OCCOCC[N+](C)(C)Cc2ccccc2)cc1	-70.8% (inactive)

Please examine the following record next.
Challenge: # get_value(readout='activity change, positive = activation', item= Oc1ccc(Cl)cc1Sc1cc(Cl)ccc1O )
Response given: -52% (inactive)
